# Tested on: SN12C
# experiment-notes: NCI tumour cell line growth inhibition, 48 h
The source made the active and inactive calls. No stated cut-off is given here; in the data, active = GI50 up to about 1.1 µM and inactive = higher.
Labels: active, inactive

[[record]]
compound = "CO[C@@H](c1ccccc1)[C@H](O)[C@@](O)(c1ccccc1)P(=O)(OC)OC"
test_system = "SN12C"
group_label = "inactive"

[[record]]
compound = "S=C1NC2=C(COC/C2=C\\c2ccccc2Cl)C(c2ccccc2Cl)N1 (centres undefined)"
test_system = "SN12C"
group_label = "inactive"

[[record]]
compound = "CNC(=S)/C(=N\\Nc1[nH]cnc1C(N)=O)C(N)=S"
test_system = "SN12C"
group_label = "inactive"

[[record]]
compound = "CC1=NN(C(=O)CC(=O)N(C(=O)c2ccccc2Cl)c2ccc(C)cc2)C(=O)C1/N=N/c1ccc([N+](=O)[O-])cc1 (centres undefined)"
test_system = "SN12C"
group_label = "inactive"

[[record]]
compound = "CCc1nn(CN2CCN(C)CC2)c(=S)n1/N=C\\c1ccc(-c2ccc([N+](=O)[O-])cc2)o1"
test_system = "SN12C"
group_label = "inactive"

[[record]]
compound = "Cc1cc(C)c([S@@](=O)O[C@@H]2[C@H]3OC(C)(C)O[C@H]3O[C@@H]2[C@H]2COC(C)(C)O2)c(C)c1"
test_system = "SN12C"
group_label = "inactive"

[[record]]
compound = "C=C(C)[C@H]1Cc2c(ccc3c2O[C@@H]2COc4cc(OC)c(OC)cc4[C@@H]2C3=O)O1"
test_system = "SN12C"
group_label = "active"

[[record]]
compound = "Cc1ccc(NC(=O)CC(=O)N2N=C(N3CCCCC3)CC2c2ccccc2)cc1 (centres undefined)"
test_system = "SN12C"
group_label = "inactive"

[[record]]
compound = "O=C(O)\\C=C/C=C/C=C/C=C/C(=O)O"
test_system = "SN12C"
group_label = "inactive"

